study_target: CCR4 (Homo sapiens, UniProt P51679)
Construct: CEM Cells Endogenous Express CCR4; endogenous in cells; host or cells: CEM cells
Sequence (P51679 whole entry): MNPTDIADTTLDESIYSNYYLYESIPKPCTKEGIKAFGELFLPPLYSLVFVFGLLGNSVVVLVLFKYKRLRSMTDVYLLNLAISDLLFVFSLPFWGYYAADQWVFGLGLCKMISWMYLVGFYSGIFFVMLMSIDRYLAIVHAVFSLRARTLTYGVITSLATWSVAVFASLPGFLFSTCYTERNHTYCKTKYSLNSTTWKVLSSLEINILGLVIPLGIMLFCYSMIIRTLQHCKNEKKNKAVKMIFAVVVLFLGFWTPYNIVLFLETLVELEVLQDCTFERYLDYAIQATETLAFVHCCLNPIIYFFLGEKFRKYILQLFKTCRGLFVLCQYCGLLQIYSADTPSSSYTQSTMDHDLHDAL
protocol_details: CEM cell chemotaxis (migration) assay to CCL22 (MDC) in 100% Fetal Bovine Serum (FBS)
Assay type: cell-based
condition_set: CEM cells in 100% FBS with 1% HEPEs; recombinant human CCL22 0.1 nM; 37° C. 60 minutes
pIC50: −log10 of the molar value.
Listed below: pIC50 values for each entry.

>>> val("C[C@@H](Nc1nc(N2CCN(C(=O)[C@]3(C)CCCN3)CC2)ncc1Cl)c1ccc(Cl)cc1Cl")
"> 7.00"
>>> val("C[C@@H](Nc1nc(N2CCN(C(=O)[C@H]3C[C@H](O)CN3)CC2)ncc1Cl)c1ccc(Cl)cc1Cl")
"> 7.00"
>>> val("C[C@@H](Nc1nc(N2CCN(C(=O)N(C)CCN(C)C)CC2)ncc1Cl)c1ccc(Cl)cc1Cl")
"> 7.00"

Could you now consider this next compound?
So what does the record say about pIC50 for `COc1cnc(N2CCC(NC(=O)[C@H]3CCCN3)CC2)nc1N[C@H](C)c1ccc(Cl)cc1Cl` ?
> 7.00

----------
Listed below: pIC50 values for each entry.
study_target: CCR4 (Homo sapiens, UniProt P51679)
Construct: CEM Cells Endogenous Express CCR4; endogenous in cells; host or cells: CEM cells
protocol_details: CEM cell chemotaxis (migration) assay to CCL22 (MDC) in 100% Fetal Bovine Serum (FBS)
Format: cell-based
condition_set: CEM cells in 100% FBS with 1% HEPEs; recombinant human CCL22 0.1 nM; 37° C. 60 minutes
pIC50: −log10 of the molar value.

Examples with answers:
>>> val("C[C@@H](Nc1nc(N2CCN(C(=O)C3(N)COC3)CC2)ncc1Cl)c1ccc(Cl)cc1Cl")
"< 6.00"
>>> val("C[C@@H](Nc1nc(N2CCN(C(=O)[C@H]3CCCN3)CC2)ncc1C#N)c1ccc(Cl)cc1Cl")
"6.00 to 7.00"
>>> val("Cc1nc(N2CCN(C(=O)[C@H]3CCCN3)[C@H](CO)C2)nc(N[C@H](C)c2ccc(Cl)cc2Cl)c1Cl")
"> 7.00"
>>> val("C[C@@H](Nc1nc(N2CCN(C(=O)[C@H]3CCCN3)CC2)ncc1O)c1ccc(Cl)cc1Cl")
"> 7.00"
>>> val("C[C@@H](Nc1nc(N2CCN(C(=O)[C@H]3CCCN3)CC2)ncc1N)c1ccc(Cl)cc1Cl")
"> 7.00"

So what does the record say about pIC50 for `C[C@@H](Nc1nc(N2CC[C@H](NC(=O)[C@H]3CN(C)C(=O)N3)[C@@H](O)C2)ncc1Cl)c1ccc(Cl)cc1Cl` ?
< 6.00

So what does the record say about pIC50 for `C[C@@H](Nc1nc(N2CCN(C(=O)[C@H]3CCCN3C(N)=O)CC2)ncc1Cl)c1ccc(Cl)cc1Cl` ?
6.00 to 7.00

So what does the record say about pIC50 for `C[C@@H](Nc1nc(N2CCN(C(=O)[C@H]3CCC(=O)N3)CC2)ncc1OC(F)F)c1ccc(Cl)cc1Cl` ?
> 7.00

So what does the record say about pIC50 for `C[C@@H](Nc1nc(N2CC[C@H](NC(=O)[C@H]3CCC(=O)N3)[C@@H](F)C2)ncc1Cl)c1ccc(Cl)cc1Cl` ?
6.00 to 7.00

So what does the record say about pIC50 for `C[C@@H](Nc1nc(N2CCN(C(=O)[C@H]3CCC(=O)N3)CC2)ncc1Cl)c1cccc(Cl)c1` ?
6.00 to 7.00

So what does the record say about pIC50 for `CO[C@H]1CN(c2ncc(Cl)c(N[C@H](C)c3ccc(Cl)cc3Cl)n2)CC[C@@H]1NC(=O)[C@H]1CCCN1` ?
> 7.00

So what does the record say about pIC50 for `C[C@@H](Nc1nc(N2CCN(C(=O)[C@H]3CCN(C(N)=O)C3)CC2)ncc1Cl)c1ccc(Cl)cc1Cl` ?
> 7.00

So what does the record say about pIC50 for `Cc1nc(N2CCN(C(=O)[C@H]3CCC(=O)N3)CC2)nc(N[C@H](C)c2c(F)cc(Cl)cc2Cl)c1Cl` ?
> 7.00

So what does the record say about pIC50 for `C[C@@H](Nc1nc(N2CCC(OC3CNC3)CC2)ncc1Cl)c1ccc(Cl)cc1Cl` ?
6.00 to 7.00
